These data points were gathered from patent US20260297085A1.

- SYSTEM NAME: human TYK2 kinase domain (JH1) (Homo sapiens)
- Construct: recombinantly generated catalytic kinase (also known as JH1) domain of human JAK1, JAK2, JAK3 and TYK2
- ASSAY NAME: JH1 biochemical assay for TYK2 (ADP-Glo kinase assay, recombinant JH1 catalytic domain, JAK3-974 peptide, 10 μM ATP)
- CONDITION SUMMARY: JH1 kinase domain, ADP-Glo
Structures can show the parent of a compound that is named as a salt.
EXPERIMENTAL ENDPOINT: IC50

Use these answered entries as a reference point.
# COMPOUND, IC50
data = [
    ("C[C@@H]1CN(c2ccnn3cc(-c4nc(C#N)cs4)cc23)C(=O)[C@]1(C#N)C1CC1 [Example 114, trifluoroacetate]", "20 to 50 nM"),
    ("C[C@@H]1CN(c2ccnn3cc(-c4ccc(S(C)(=O)=O)nc4)cc23)C(=O)[C@]1(C#N)C1CC1", "5 to 20 nM"),
    ("C[C@@H]1CN(c2ccnn3cc(-c4cnn(C)c4)nc23)C(=O)[C@]1(C#N)C1CC1", "20 to 50 nM"),
    ("C[C@@H]1CN(c2ccnn3cc(-c4cc(C(F)(F)F)ncn4)cc23)C(=O)[C@]1(C#N)C1CC1 [Example 121, trifluoroacetate]", "> 100 nM"),
    ("C[C@@H]1CN(c2nc(-c3cnn(C)c3)cn3ncc(F)c23)C(=O)[C@]1(C#N)C1CC1", "< 5 nM"),
    ("CCc1ncccc1-c1cc2c(N3C[C@@H](C)[C@@](C#N)(C4CC4)C3=O)ccnn2c1 [Example 178, trifluoroacetate]", "> 100 nM"),
]

INPUT: Name the recorded IC50 for `C[C@@H]1CN(c2ccnn3cc(-c4ncccn4)cc23)C(=O)[C@]1(C#N)C1CC1` .
OUTPUT: > 100 nM

INPUT: Name the recorded IC50 for `C[C@@H]1CN(c2ccnc3[nH]c(-c4cnn(C)c4)nc23)C(=O)[C@]1(C#N)C1CC1` .
OUTPUT: 5 to 20 nM

INPUT: Name the recorded IC50 for `C[C@@H]1CN(c2ccnn3cc(-c4cnn(C5CC(F)(F)C5)c4)cc23)C(=O)[C@]1(C#N)C1CC1` .
OUTPUT: < 5 nM

INPUT: Name the recorded IC50 for `CC(=O)Nc1cncc(-c2cc3c(N4C[C@@H](C)[C@@](C#N)(C5CC5)C4=O)ccnn3c2)c1` .
OUTPUT: 5 to 20 nM

INPUT: Name the recorded IC50 for `C[C@@H]1CN(c2ccnn3cc(-c4cnn(-c5ccccn5)c4)cc23)C(=O)[C@]1(C#N)C1CC1` .
OUTPUT: < 5 nM

INPUT: Name the recorded IC50 for `C[C@@H]1CN(c2ccnn3cc(-c4ccc5cncn5c4)cc23)C(=O)[C@]1(C#N)C1CC1` .
OUTPUT: 5 to 20 nM

====

- SYSTEM NAME: human TYK2 kinase domain (JH1) (Homo sapiens, UniProt P29597)
- Construct: recombinantly generated catalytic kinase (also known as JH1) domain of human JAK1, JAK2, JAK3 and TYK2
- Sequence (P29597 897-1176 limits assumed): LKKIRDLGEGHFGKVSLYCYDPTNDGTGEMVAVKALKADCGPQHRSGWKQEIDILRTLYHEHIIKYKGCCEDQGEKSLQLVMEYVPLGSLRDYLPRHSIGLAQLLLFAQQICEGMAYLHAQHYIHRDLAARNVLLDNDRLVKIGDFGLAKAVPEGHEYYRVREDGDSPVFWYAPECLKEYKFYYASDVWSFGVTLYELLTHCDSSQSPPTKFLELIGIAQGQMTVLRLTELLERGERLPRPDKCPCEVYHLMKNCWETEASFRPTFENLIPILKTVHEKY
- ASSAY NAME: JH1 biochemical assay for TYK2 (ADP-Glo kinase assay, recombinant JH1 catalytic domain, JAK3-974 peptide, 10 μM ATP)
- CONDITION SUMMARY: JH1 kinase domain, ADP-Glo
pIC50: −log10 of the molar value. Where a name gives a salt, the structure may show the parent alone.
# pIC50 annotations

Use these answered entries as a reference point.
# COMPOUND, SYSTEM NAME, pIC50
records = [
    ("C[C@@H]1CN(c2ccnn3cc(-c4cncn4C)cc23)C(=O)[C@]1(C#N)C1CC1", "human TYK2 kinase domain (JH1) (Homo sapiens, UniProt P29597)", "7.30 to 7.70"),
    ("CC[C@]1(C#N)CCN(c2ccnn3cc(-c4cnn(C)c4)cc23)C1=O (single isomer, unassigned)", "human TYK2 kinase domain (JH1) (Homo sapiens, UniProt P29597)", "7.00 to 7.30"),
    ("Cc1nn(C)c(C)c1-c1cn2nccc2c(N2C[C@@H](C)[C@@](C#N)(C3CC3)C2=O)n1", "human TYK2 kinase domain (JH1) (Homo sapiens, UniProt P29597)", "7.30 to 7.70"),
    ("CC(C)n1cc(-c2cc3c(N4C[C@@H](C)[C@@](C#N)(C5CC5)C4=O)ccnn3c2)cn1", "human TYK2 kinase domain (JH1) (Homo sapiens, UniProt P29597)", "> 8.30"),
]

INPUT: Name the recorded pIC50 for `C[C@@H]1CN(c2ccnn3cc(-c4ccnc(C(F)(F)F)c4)cc23)C(=O)[C@]1(C#N)C1CC1` .
OUTPUT: 7.70 to 8.30

INPUT: Name the recorded pIC50 for `CC(=O)Nc1cc(-c2cc3c(N4C[C@@H](C)[C@@](C#N)(C5CC5)C4=O)ccnn3c2)ccn1` .
OUTPUT: > 8.30

INPUT: Name the recorded pIC50 for Cc1ccc(O)c(-c2cc3c(N4C[C@@H](C)[C@@](C#N)(C5CC5)C4=O)ccnn3c2)n1 [Example 140, trifluoroacetate] .
OUTPUT: 7.00 to 7.30

====

# IC50 annotations
- SYSTEM NAME: JAK2 kinase activity on STAT5 in TF1 cells (Homo sapiens, UniProt O60674)
- Sequence (O60674 whole entry): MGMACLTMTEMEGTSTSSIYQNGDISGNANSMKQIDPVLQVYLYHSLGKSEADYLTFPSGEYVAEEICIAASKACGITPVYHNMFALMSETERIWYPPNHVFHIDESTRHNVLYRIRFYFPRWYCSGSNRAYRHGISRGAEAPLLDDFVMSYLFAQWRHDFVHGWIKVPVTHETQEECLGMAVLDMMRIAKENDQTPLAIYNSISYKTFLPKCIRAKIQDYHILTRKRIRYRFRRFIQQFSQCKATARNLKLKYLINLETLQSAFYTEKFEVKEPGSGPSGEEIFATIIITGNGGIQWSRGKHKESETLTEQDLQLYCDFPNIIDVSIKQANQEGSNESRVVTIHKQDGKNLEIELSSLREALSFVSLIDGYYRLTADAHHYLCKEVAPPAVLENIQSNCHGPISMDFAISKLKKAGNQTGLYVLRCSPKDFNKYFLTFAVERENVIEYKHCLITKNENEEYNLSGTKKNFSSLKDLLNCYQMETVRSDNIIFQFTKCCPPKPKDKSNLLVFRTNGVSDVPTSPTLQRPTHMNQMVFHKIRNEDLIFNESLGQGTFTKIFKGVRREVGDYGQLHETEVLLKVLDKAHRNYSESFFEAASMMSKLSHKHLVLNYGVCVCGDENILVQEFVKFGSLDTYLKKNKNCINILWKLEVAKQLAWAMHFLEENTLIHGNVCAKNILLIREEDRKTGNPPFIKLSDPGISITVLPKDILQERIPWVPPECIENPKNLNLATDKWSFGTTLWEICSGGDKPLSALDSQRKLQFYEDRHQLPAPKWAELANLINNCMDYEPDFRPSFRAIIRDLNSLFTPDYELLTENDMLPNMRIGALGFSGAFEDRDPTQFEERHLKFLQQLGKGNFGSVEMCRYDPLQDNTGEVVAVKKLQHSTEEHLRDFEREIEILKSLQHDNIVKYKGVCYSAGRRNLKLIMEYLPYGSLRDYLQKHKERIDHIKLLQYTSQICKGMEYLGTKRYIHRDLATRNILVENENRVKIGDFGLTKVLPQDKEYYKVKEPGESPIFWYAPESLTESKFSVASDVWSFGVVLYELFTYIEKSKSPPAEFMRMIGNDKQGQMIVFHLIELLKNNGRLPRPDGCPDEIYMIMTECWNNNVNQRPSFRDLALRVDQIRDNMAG
- ASSAY NAME: pSTAT5 cell assay (MSD; TF1 cells, 30 ng/mL IL-3 stimulation)
- Type: cell-based
- CONDITION SUMMARY: 30 ng/mL IL-3, 15 minutes

Use these answered entries as a reference point.
# COMPOUND, IC50
measured = [
    ("C[C@@H]1CN(c2nc(-c3cnn(C(F)F)c3)cn3nccc23)C(=O)[C@]1(C#N)C1CC1 [Example 185]", "0.1 to 1 µM"),
    ("C[C@@H]1CN(c2ccnn3cc(-c4ccc5nccn5c4)cc23)C(=O)[C@]1(C#N)C1CC1 [Example 88]", "1 to 5 µM"),
]

INPUT: Name the recorded IC50 for Cc1ccn(-c2cc3c(N4C[C@@H](C)[C@@](C#N)(C5CC5)C4=O)ccnn3c2)n1 [Example 334] .
OUTPUT: > 10 µM

INPUT: Name the recorded IC50 for C[C@@H]1CN(c2ccnn3cc(-c4ccc(OC(F)F)nc4)cc23)C(=O)[C@]1(C#N)C1CC1 [Example 176] .
OUTPUT: > 10 µM

====

- SYSTEM NAME: human TYK2 kinase domain (JH1) (Homo sapiens)
- Construct: recombinantly generated catalytic kinase (also known as JH1) domain of human JAK1, JAK2, JAK3 and TYK2
- ASSAY NAME: JH1 biochemical assay for TYK2 (ADP-Glo kinase assay, recombinant JH1 catalytic domain, JAK3-974 peptide, 10 μM ATP)
- CONDITION SUMMARY: TYK2 JH1, ADP-Glo
pIC50: −log10 of the molar value.
EXPERIMENTAL ENDPOINT: pIC50

INPUT: Name the recorded pIC50 for `C[C@@H]1CN(c2ccnn3cc(-n4cccn4)cc23)C(=O)[C@]1(C#N)C1CC1` .
OUTPUT: 7.30 to 7.70

INPUT: Name the recorded pIC50 for `CC(C)[C@@]1(C#N)C(=O)N(c2nc(-c3cnn(C)c3)cn3ncc(F)c23)C[C@H]1C` .
OUTPUT: 7.70 to 8.30

====

- SYSTEM NAME: human TYK2 kinase domain (JH1) (Homo sapiens, UniProt P29597)
- Construct: recombinantly generated catalytic kinase (also known as JH1) domain of human JAK1, JAK2, JAK3 and TYK2
- Sequence (P29597 897-1176 limits assumed): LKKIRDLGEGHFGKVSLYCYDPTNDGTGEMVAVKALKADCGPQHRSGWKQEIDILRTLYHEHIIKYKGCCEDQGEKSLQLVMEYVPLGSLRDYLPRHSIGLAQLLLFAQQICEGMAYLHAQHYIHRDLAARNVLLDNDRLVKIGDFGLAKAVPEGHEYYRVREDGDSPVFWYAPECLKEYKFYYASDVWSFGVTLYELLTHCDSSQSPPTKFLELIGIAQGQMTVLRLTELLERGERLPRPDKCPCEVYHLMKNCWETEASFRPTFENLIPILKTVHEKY
- ASSAY NAME: JH1 biochemical assay for TYK2 (ADP-Glo kinase assay, recombinant JH1 catalytic domain, JAK3-974 peptide, 10 μM ATP)
- CONDITION SUMMARY: JH1 kinase domain, ADP-Glo
- Method: Compounds of the disclosure were assessed for their ability to inhibit TYK2, JAK1, JAK2, and JAK3 activity. The inhibitory properties of the compounds of the disclosure described herein can be evidenced by testing in any one of the following protocols. The kinase activity of recombinantly generated catalytic kinase (also known as JH1) domain of human JAK1, JAK2, JAK3 and TYK2 were evaluated in a plate-based assay using the ADP-Glo™ Kinase Assay platform. […]
Structures can show the parent of a compound that is named as a salt.
# IC50 annotations

# MOLECULE, RESULT VALUE
rows = [
    ("C[C@@H]1CN(c2ccnn3cc(-c4ccc(OC(F)F)nc4)cc23)C(=O)[C@]1(C#N)C1CC1 [Example 176]", "5 to 20 nM"),
    ("Cn1cc(-c2cc3c(N4CC[C@](C#N)(C5CC5)C4=O)ccnc3[nH]2)cn1 [Example 2]", "50 to 100 nM"),
    ("C[C@@H]1CN(c2ccnn3cc(-c4cc(C(F)(F)F)nn4C)cc23)C(=O)[C@]1(C#N)C1CC1 [Example 107, trifluoroacetate]", "20 to 50 nM"),
    ("C[C@@H]1CN(c2ccnn3cc(-c4nc5cnccc5s4)cc23)C(=O)[C@]1(C#N)C1CC1 [Example 102, trifluoroacetate]", "5 to 20 nM"),
    ("Cn1cc(-c2cc3c(N4CC[C@](C#N)(C5CCC5)C4=O)ccnn3c2)cn1 (single isomer, unassigned) [Example 47]", "> 100 nM"),
    ("Cn1cc(-c2cc3c(N4CC[C@@H](C5CC5)C4=O)ccnn3c2)cn1 (single isomer, unassigned) [Example 37]", "> 100 nM"),
    ("C[C@@H]1CN(c2ccnn3cc(-c4ccc5ncnn5c4)cc23)C(=O)[C@]1(C#N)C1CC1 [Example 57]", "5 to 20 nM"),
    ("CC(C)n1cc(-c2cn3ncc(F)c3c(N3C[C@@H](C)[C@@](C#N)(C4CC4)C3=O)n2)cn1 [Example 190]", "< 5 nM"),
    ("CC[C@H]1C[C@](C#N)(C2CC2)C(=O)N1c1ccnn2cc(-c3cnn(C)c3)cc12 [Example 32]", "> 100 nM"),
    ("C[C@@H]1CN(c2ccnn3cc(-c4cnn(C5COC5)c4)cc23)C(=O)[C@]1(C#N)C1CC1 [Example 97]", "< 5 nM"),
]

INPUT: Give IC50 (human TYK2 kinase domain (JH1) (Homo sapiens, UniProt P29597)) of the following molecule: COc1cccnc1-c1cc2c(N3C[C@@H](C)[C@@](C#N)(C4CC4)C3=O)ccnn2c1 [Example 146, trifluoroacetate]
OUTPUT: > 100 nM

INPUT: Give IC50 (human TYK2 kinase domain (JH1) (Homo sapiens, UniProt P29597)) of the following molecule: Cn1cc(-c2cc3c(N4CC[C@@](C#N)(C5CC5)C4=O)ccnc3[nH]2)cn1 [Example 4]
OUTPUT: < 5 nM

INPUT: Give IC50 (human TYK2 kinase domain (JH1) (Homo sapiens, UniProt P29597)) of the following molecule: C[C@@H]1CN(c2ccnn3cc(-c4cnc5[nH]ncc5c4)cc23)C(=O)[C@]1(C#N)C1CC1 [Example 75]
OUTPUT: < 5 nM

INPUT: Give IC50 (human TYK2 kinase domain (JH1) (Homo sapiens, UniProt P29597)) of the following molecule: Cc1nc(-c2cn3nccc3c(N3C[C@@H](C)[C@@](C#N)(C4CC4)C3=O)n2)cs1 [Example 214]
OUTPUT: 5 to 20 nM

INPUT: Give IC50 (human TYK2 kinase domain (JH1) (Homo sapiens, UniProt P29597)) of the following molecule: C[C@@H]1CN(c2ccnn3cc(-c4cccnc4F)cc23)C(=O)[C@]1(C#N)C1CC1 [Example 56]
OUTPUT: 5 to 20 nM
